System: L1210 leukemia ip in BDF1 mice, survival T/C
Assay: NCI In Vivo Anticancer Drug Screen. Data for tumor model L1210 Leukemia (intraperitoneal) in B6D2F1 (BDF1) mice
Settings: endpoint: mean survival time; dose: 200.0 mg/kg/injection; schedule: Q01DX009 (ip); vehicle: Klucel (hydroxypropylcellulose) (HPC); higher = longer survival
Method: The antitumor activity of compounds was measured in mice bearing transplantable tumors. Survival or tumor size were measured and the results are expressed as the measurement made in the treated group (T) divided by the measurement made in the vehicle treated control group (C). The tumor model used in this assay is L1210 Leukemia (intraperitoneal) in B6D2F1 (BDF1) mice
Inconclusive results and toxic doses are left out.

Molecule: O=C(c1ccccc1)C(Nc1nc2nc(-c3ccccc3)c(-c3ccccc3)n2[nH]1)c1ccccc1 (stereo unspecified)
T/C: 93 % of control

Molecule: O=C1OC(=O)c2c1ccc(Br)c2Br
T/C: 96 % of control

Molecule: CC(=O)c1cccc(NC(=O)Oc2ccc(C(=O)OCc3ccccc3)cc2)c1
T/C: 95 % of control

Molecule: Cc1ccc(S(=O)(=O)NN=C2CCS(=O)CC2)cc1 (stereo unspecified)
T/C: 97 % of control

Molecule: COc1ccc(OCCOC(=O)Nc2ccc(C)cc2[N+](=O)[O-])cc1
T/C: 90 % of control

Molecule: CCCCCC(NC(=O)CCl)C(=O)O (stereo unspecified)
T/C: 96 % of control

###

Test system: L1210 leukemia ip in BDF1 mice, survival T/C
Test: NCI In Vivo Anticancer Drug Screen. Data for tumor model L1210 Leukemia (intraperitoneal) in B6D2F1 (BDF1) mice
Conditions: endpoint: mean survival time; dose: 25.0 mg/kg/injection; schedule: Q01DX009 (ip); vehicle: saline; higher = longer survival
Procedure: The antitumor activity of compounds was measured in mice bearing transplantable tumors. Survival or tumor size were measured and the results are expressed as the measurement made in the treated group (T) divided by the measurement made in the vehicle treated control group (C). The tumor model used in this assay is L1210 Leukemia (intraperitoneal) in B6D2F1 (BDF1) mice
Toxic doses and inconclusive results are not listed.
Quantity Kind: T/C

Compound: OCCN1CCN(Cc2cccc3ccccc23)CC1
Quantity Kind: T/C
Observed Result: 112 % of control

Compound: C[N+](C)(CC(=O)Nc1ccc(Cl)c(Cl)c1)CC(=O)c1ccc(Cl)cc1
Quantity Kind: T/C
Observed Result: 89 % of control

Compound: CC(CO)NC(=O)C1C=C2c3cccc4[nH]cc(c34)CC2N(C)C1 (configuration not stated)
Quantity Kind: T/C
Observed Result: 95 % of control

Compound: CCCC1(CCC)CN(C)C1=O
Quantity Kind: T/C
Observed Result: 88 % of control

Compound: C=C1CC[N+]2(CCCCCC)CCCC12 (configuration not stated)
Quantity Kind: T/C
Observed Result: 103 % of control

Compound: O=c1ccc2c([nH]1)CCC2
Quantity Kind: T/C
Observed Result: 111 % of control

Compound: [Cl][Nd]([Cl])[Cl]
Quantity Kind: T/C
Observed Result: 87 % of control

###

Below: a set of entries, each annotated with reported T/C.
Tested on: L1210 leukemia ip in BDF1 mice, survival T/C
Test: NCI In Vivo Anticancer Drug Screen. Data for tumor model L1210 Leukemia (intraperitoneal) in B6D2F1 (BDF1) mice
Details: endpoint: mean survival time; dose: 400.0 mg/kg/injection; schedule: Q01DX009 (ip); vehicle: saline with Tween-80; higher = longer survival
Inconclusive results and toxic doses are left out.

Compound: O=C(Cc1ccccc1)c1ccccc1
T/C: 100 % of control
//
Compound: O=C(Cn1ccc(O)cc1=O)c1ccco1
T/C: 101 % of control
//
Compound: O=C1c2ccccc2CC1(Br)C(Br)c1ccccc1 (configuration not stated)
T/C: 89 % of control
//
Compound: COc1ccc(-c2nc(-c3cccc(O)c3)[nH]c2-c2ccc(OC)cc2)cc1
T/C: 105 % of control
//
Compound: O=C(O)c1ccccc1C(=O)NNC(=O)c1ccccc1C(=O)O
T/C: 94 % of control
//
Compound: CC(C)C(C(=O)c1ccccc1)c1ccccc1 (configuration not stated)
T/C: 104 % of control
//
Compound: O=C1OCCN1c1ccc(S(=O)(=O)c2ccc(N3CCOC3=O)cc2)cc1
T/C: 95 % of control
//
Compound: CSc1ccc(NS(=O)(=O)CCNC(=O)C(O)C(C)(C)CO)cc1 (configuration not stated)
T/C: 92 % of control
//
Compound: CCC(C)c1ccc(O)c(C(C)CC)c1 (configuration not stated)
T/C: 102 % of control
//
Compound: CCC1CCC(NC(=O)c2ccccc2)CC1 (configuration not stated)
T/C: 92 % of control
//
Compound: NC(N)=NCCCC(NC(=O)c1ccccc1)C(=O)Nc1ccc([N+](=O)[O-])cc1 (configuration not stated)
T/C: 110 % of control
//
Compound: CCOC(=O)c1ccc(N)c(C(O)(C(F)(F)F)C(F)(F)F)c1
T/C: 104 % of control

###

System: L1210 leukemia ip in BDF1 mice, survival T/C
Test: NCI In Vivo Anticancer Drug Screen. Data for tumor model L1210 Leukemia (intraperitoneal) in B6D2F1 (BDF1) mice
Conditions: endpoint: mean survival time; dose: 200.0 mg/kg/injection; schedule: Q01DX009 (ip); vehicle: saline with Tween-80; higher = longer survival
Inconclusive results and toxic doses are left out.
Below: a set of entries, each annotated with reported T/C.
Quantity Kind: T/C

Compound: CSCCC(C)C
Experimental System: L1210 leukemia ip in BDF1 mice, survival T/C
Observed Result: 95 % of control

Compound: C=CCc1ccccc1OC
Experimental System: L1210 leukemia ip in BDF1 mice, survival T/C
Observed Result: 95 % of control

Compound: N#CC1(c2ccccc2)CC(C(=O)c2ccccc2)C(O)(c2ccccc2)CC1c1ccccc1 (stereo not drawn)
Experimental System: L1210 leukemia ip in BDF1 mice, survival T/C
Observed Result: 101 % of control

Compound: COc1ccc(S(=O)(=O)Nc2cc(Cl)ccc2Cl)cc1
Experimental System: L1210 leukemia ip in BDF1 mice, survival T/C
Observed Result: 103 % of control

Compound: O=C(CNC(=O)c1ccccc1)N/N=C/c1c(O)ccc2ccccc12
Experimental System: L1210 leukemia ip in BDF1 mice, survival T/C
Observed Result: 95 % of control

Compound: CN1C(=O)C2C(N=CN2C)N(C)C1=O (stereo not drawn)
Experimental System: L1210 leukemia ip in BDF1 mice, survival T/C
Observed Result: 90 % of control

Compound: Cc1ccc(S(=O)(=O)N2CC(O)CC2C(=O)O)cc1 (stereo not drawn)
Experimental System: L1210 leukemia ip in BDF1 mice, survival T/C
Observed Result: 101 % of control

Compound: Cn1nnn2c(-c3ccccc3)nnc12
Experimental System: L1210 leukemia ip in BDF1 mice, survival T/C
Observed Result: 105 % of control

Compound: CN(CCO)/N=N/c1nc[nH]c1C#N
Experimental System: L1210 leukemia ip in BDF1 mice, survival T/C
Observed Result: 103 % of control

Compound: C[n+]1cccc(C(=O)N/N=C/CCc2ccccc2)c1
Experimental System: L1210 leukemia ip in BDF1 mice, survival T/C
Observed Result: 95 % of control

Compound: O=C1c2ccccc2CC1(Br)C(Br)c1ccccc1 (stereo not drawn)
Experimental System: L1210 leukemia ip in BDF1 mice, survival T/C
Observed Result: 91 % of control

Compound: CC(C)C(C(=O)c1ccccc1)c1ccccc1 (stereo not drawn)
Experimental System: L1210 leukemia ip in BDF1 mice, survival T/C
Observed Result: 93 % of control

Compound: Cc1ccc2ccccc2c1OC(C)C(=O)O (stereo not drawn)
Experimental System: L1210 leukemia ip in BDF1 mice, survival T/C
Observed Result: 113 % of control

###

Test system: L1210 leukemia ip in BDF1 mice, survival T/C
Test: NCI In Vivo Anticancer Drug Screen. Data for tumor model L1210 Leukemia (intraperitoneal) in B6D2F1 (BDF1) mice
Conditions: endpoint: mean survival time; dose: 150.0 mg/kg/injection; schedule: Q01DX001 (ip); vehicle: Klucel (hydroxypropylcellulose) (HPC); higher = longer survival
Inconclusive results and toxic doses are left out.

Molecular String: COc1ccccc1-n1c(=O)c(N=Nc2ccc(Br)cc2)c(O)n(-c2ccccc2Cl)c1=S
T/C: 98 % of control
//
Molecular String: CCc1ccccc1Nc1cc(=O)[nH]c(=O)[nH]1
T/C: 93 % of control
//
Molecular String: Cc1ccc(-n2c(O)c(N=Nc3ccc(Cl)cc3)c(=O)n(-c3ccc(I)cc3)c2=S)cc1
T/C: 100 % of control
//
Molecular String: O=C(/C=C(\C(=O)c1ccccc1)c1ccccc1)c1ccc(Cl)cc1
T/C: 95 % of control

###

Below: a set of entries, each annotated with reported T/C.
Test system: L1210 leukemia ip in BDF1 mice, survival T/C
Assay: NCI In Vivo Anticancer Drug Screen. Data for tumor model L1210 Leukemia (intraperitoneal) in B6D2F1 (BDF1) mice
Settings: endpoint: mean survival time; dose: 400.0 mg/kg/injection; schedule: Q04DX003 (ip); vehicle: saline with Tween-80; higher = longer survival
Toxic doses and inconclusive results are not listed.

Molecule: COc1ccc(C(C)c2ccccc2)cc1 (configuration not stated)
T/C: 93 % of control
--
Molecule: CC(=O)Nc1cccc(C(C)=O)c1[N+](=O)[O-]
T/C: 100 % of control
--
Molecule: NC(=O)c1n[nH]nc1N1CC[N+](CCCl)=N1
T/C: 113 % of control
--
Molecule: CC(/C=C\c1ccc([N+](=O)[O-])cc1)=N\NC(=O)c1ccncc1
T/C: 96 % of control
--
Molecule: OCCOc1cccc(OCCO)c1
T/C: 92 % of control
--
Molecule: COc1cc(Nc2cc(N)nc(N)n2)cc(OC)c1OC
T/C: 88 % of control
--
Molecule: Cc1cc(=O)[nH]c(N(CCO)CCO)n1
T/C: 100 % of control
--
Molecule: CC(=O)OCc1ccc2ccccc2c1
T/C: 101 % of control
--
Molecule: O=P(CCCc1ccccc1)(CCCc1ccccc1)Oc1cccc(C(F)(F)F)c1
T/C: 101 % of control
--
Molecule: CCC(=O)OCC(C)([N+](=O)[O-])[N+](=O)[O-]
T/C: 109 % of control
--
Molecule: CCN(CC)CC(=O)Nc1cccc2c1C(=O)c1c(c(O)c3ccccc3c1O)C2=O
T/C: 102 % of control
--
Molecule: CCOC(=O)c1ccc(N(CC2CO2)S(=O)(=O)c2ccc(C)cc2)cc1 (configuration not stated)
T/C: 92 % of control
